molecular target: Potassium voltage-gated channel subfamily A member 5 (Homo sapiens, UniProt P22460); assay: Inhibition of voltage-gated potassium channel subunit Kv1.5
Sequence (P22460 whole entry): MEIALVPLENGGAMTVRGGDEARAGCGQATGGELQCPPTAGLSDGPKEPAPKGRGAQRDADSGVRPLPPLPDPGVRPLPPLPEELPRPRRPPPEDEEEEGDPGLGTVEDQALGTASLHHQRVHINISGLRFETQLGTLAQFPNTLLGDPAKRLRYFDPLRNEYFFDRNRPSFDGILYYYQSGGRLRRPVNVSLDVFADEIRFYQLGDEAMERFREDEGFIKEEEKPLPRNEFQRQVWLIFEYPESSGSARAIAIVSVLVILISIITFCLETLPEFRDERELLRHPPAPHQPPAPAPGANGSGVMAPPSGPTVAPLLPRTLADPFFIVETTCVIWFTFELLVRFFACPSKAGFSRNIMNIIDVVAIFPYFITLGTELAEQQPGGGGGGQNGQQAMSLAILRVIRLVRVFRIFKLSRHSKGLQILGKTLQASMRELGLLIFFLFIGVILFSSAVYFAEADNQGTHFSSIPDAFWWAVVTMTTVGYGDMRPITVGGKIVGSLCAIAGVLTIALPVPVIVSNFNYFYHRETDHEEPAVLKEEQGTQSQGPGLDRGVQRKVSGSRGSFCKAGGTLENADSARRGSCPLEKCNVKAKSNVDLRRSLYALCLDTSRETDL
Endpoint: IC50

smiles_entry=CCc1ccc(S(=O)(=O)N[C@@H]2c3cc(NC(=O)c4cccc(OC)c4)ccc3C[C@H]2O)cc1 endpoint=IC50 reported_value="100 nM"
smiles_entry=CCCCc1ccc(S(=O)(=O)N[C@@H]2c3cc(NC(=O)c4cccc(OC)c4)ccc3CC[C@H]2O)cc1 endpoint=IC50 reported_value="~50 nM"

====

biological target: Sulfonylurea receptor 2, Kir6.2 (Homo sapiens, UniProt O60706+Q14654); assay: Inhibition of SUR2B/Kir6.2; type: protein-complex assay, Rattus norvegicus
Sequence (Q14654 whole entry): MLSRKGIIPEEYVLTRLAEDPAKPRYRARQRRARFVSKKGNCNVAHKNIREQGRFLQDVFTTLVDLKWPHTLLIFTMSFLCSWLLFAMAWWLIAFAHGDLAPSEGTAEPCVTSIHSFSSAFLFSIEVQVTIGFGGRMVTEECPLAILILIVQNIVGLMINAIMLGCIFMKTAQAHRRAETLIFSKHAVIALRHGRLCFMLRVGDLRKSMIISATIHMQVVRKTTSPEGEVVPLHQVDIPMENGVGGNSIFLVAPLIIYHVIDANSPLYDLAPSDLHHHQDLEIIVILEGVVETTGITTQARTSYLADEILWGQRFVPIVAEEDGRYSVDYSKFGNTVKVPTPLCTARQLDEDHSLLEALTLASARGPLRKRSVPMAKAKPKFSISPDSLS
Sequence (O60706 whole entry): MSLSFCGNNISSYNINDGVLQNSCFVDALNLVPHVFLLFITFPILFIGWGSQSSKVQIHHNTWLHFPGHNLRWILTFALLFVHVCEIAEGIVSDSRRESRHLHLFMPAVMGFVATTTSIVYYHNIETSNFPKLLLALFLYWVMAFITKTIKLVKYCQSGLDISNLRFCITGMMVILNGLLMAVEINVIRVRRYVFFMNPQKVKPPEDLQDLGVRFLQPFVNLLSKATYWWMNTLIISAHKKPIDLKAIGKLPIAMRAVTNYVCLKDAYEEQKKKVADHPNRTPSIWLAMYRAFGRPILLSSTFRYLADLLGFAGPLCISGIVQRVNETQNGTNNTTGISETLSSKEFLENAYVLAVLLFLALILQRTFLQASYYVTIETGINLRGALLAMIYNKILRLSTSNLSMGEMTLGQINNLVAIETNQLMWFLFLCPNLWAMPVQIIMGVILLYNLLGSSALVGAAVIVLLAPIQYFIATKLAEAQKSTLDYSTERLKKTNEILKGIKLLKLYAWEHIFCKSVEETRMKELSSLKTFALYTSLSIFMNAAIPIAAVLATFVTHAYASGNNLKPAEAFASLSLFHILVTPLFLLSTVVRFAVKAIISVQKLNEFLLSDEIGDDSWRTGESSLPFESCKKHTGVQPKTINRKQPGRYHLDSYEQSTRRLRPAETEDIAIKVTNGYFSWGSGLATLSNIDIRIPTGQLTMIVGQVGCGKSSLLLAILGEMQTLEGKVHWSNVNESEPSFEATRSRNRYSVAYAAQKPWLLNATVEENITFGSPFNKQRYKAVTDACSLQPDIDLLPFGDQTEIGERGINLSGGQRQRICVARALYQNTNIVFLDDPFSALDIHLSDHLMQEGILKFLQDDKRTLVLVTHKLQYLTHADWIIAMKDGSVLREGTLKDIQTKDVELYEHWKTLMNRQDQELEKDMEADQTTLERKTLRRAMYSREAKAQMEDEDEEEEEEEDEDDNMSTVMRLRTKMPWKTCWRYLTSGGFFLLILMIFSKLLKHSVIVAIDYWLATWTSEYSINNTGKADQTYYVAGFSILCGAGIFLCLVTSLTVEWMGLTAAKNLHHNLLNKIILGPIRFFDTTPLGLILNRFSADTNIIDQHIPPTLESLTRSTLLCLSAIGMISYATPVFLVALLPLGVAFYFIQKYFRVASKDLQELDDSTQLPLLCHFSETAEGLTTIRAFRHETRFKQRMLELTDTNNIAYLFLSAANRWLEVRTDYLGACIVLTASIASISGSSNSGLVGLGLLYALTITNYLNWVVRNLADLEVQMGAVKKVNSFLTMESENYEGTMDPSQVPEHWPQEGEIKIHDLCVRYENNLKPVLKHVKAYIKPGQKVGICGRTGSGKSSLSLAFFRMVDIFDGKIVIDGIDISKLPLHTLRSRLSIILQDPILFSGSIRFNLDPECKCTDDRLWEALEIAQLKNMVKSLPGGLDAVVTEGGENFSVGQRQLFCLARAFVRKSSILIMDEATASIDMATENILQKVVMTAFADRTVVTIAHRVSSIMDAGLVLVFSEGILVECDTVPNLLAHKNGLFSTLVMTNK
pKd: −log10 of the molar value.
Endpoint: pKd

smiles_entry=CNC(=S)C1(C(=O)c2ccc(-n3ccnc3)cc2)CCC1 experimental_system="Sulfonylurea receptor 2, Kir6.2 (Homo sapiens, UniProt O60706+Q14654)" reported_value=5.28
